experiment: Amount of generated hydroxyl radicals using metal oxides and hydroxides, HPF reagent (Example 15); settings: left shaded for 1 hour; 100% = 0.1% titanium oxide irradiated with room light 30 minutes
Amount of generated hydroxyl radicals (% of control) by entry:

Solved entries:
- [K+].[OH-] [Potassium hydroxide (1%), potassium hydroxide]: 2.88 % of control
- [Na+].[OH-] [Sodium hydroxide (1%), sodium hydroxide]: 3.29 % of control
- [O]=[Mg] [Magnesium oxide (1%), magnesium oxide, reference compound]: 15.07 % of control

Query: Please look at this compound and report its Amount of generated hydroxyl radicals (% of control): [Mg+2].[OH-].[OH-] [Magnesium hydroxide (1%), magnesium hydroxide]
Reply: 26.17 % of control

Query: Please look at this compound and report its Amount of generated hydroxyl radicals (% of control): [Ca+2].[OH-].[OH-] [Calcium hydroxide (1%), calcium hydroxide]
Reply: 14.27 % of control
